Entry source: PubChem BioAssay (NCI)

# Test system: HOP-62 NSCLC
# Experimental details: NCI tumour cell line growth inhibition, 48 h
Hi there, I'd appreciate the recorded TGI for every entry that follows.

Lab entry: HOP-62 NSCLC assay, molecule O=C1CCCCC1CN1CCCC1 (stereo not drawn) , TGI = > 100 µM

Lab entry: HOP-62 NSCLC assay, molecule CCc1n[nH]c(=S)n1/N=C\c1ccc(-c2ccccc2Cl)o1 , TGI = > 100 µM

Lab entry: HOP-62 NSCLC assay, molecule CC(=O)N1N=C2/C(=C/c3ccccc3)CC(C)CC2C1c1ccccc1 (stereo not drawn) , TGI = 32.6 µM

Lab entry: HOP-62 NSCLC assay, molecule CCOc1c(Br)cc(C2C(C(=O)OC)=CN(C)C=C2C(=O)OC)cc1OC , TGI = > 100 µM

Lab entry: HOP-62 NSCLC assay, molecule CCCCCCC(=O)OC[n+]1ccc2c(C)c3[nH]c4ccccc4c3c(C)c2c1 , TGI = 24.7 µM

Lab entry: HOP-62 NSCLC assay, molecule Cc1nc(Cl)nc(Cl)c1C , TGI = > 100 µM

Lab entry: HOP-62 NSCLC assay, molecule c1ccc(Cn2cc3c(c2-c2ccccc2)CCc2cnoc2-3)cc1 , TGI = > 100 µM

Lab entry: HOP-62 NSCLC assay, molecule COc1ccccc1OCC(=O)Nc1sc2c(c1C(N)=O)CCC2 , TGI = > 100 µM

Lab entry: HOP-62 NSCLC assay, molecule O=C1CC(c2ccc(N3CCOCC3)cc2)(c2ccsc2)NC(=O)C1Sc1ccccc1Cl (stereo not drawn) , TGI = > 100 µM

Lab entry: HOP-62 NSCLC assay, molecule CC1(C)COC(C23C4C5C2C2C3C4C52I)=N1 (stereo not drawn) , TGI = > 100 µM

Lab entry: HOP-62 NSCLC assay, molecule COC1=C2CC(C)CC(OC)[C@@H](OC(=O)CCN)[C@H](C)/C=C(\C)C(OC(N)=O)C(OC)/C=C\C=C(/C)C(=O)NC(=CC1=O)C2=O (stereo partly drawn) , TGI = 15.4 µM

Lab entry: HOP-62 NSCLC assay, molecule C/C(=N\NS(=O)(=O)c1ccc(C)cc1)C(CN1CCOCC1)C(c1ccccc1)c1c(O)c2ccccc2oc1=O (stereo not drawn) , TGI = > 100 µM

Lab entry: HOP-62 NSCLC assay, molecule N#C/C(=C\c1ccc(-c2ccc(Cl)cc2)o1)C(=O)Nc1ncc(Cc2ccc(Cl)cc2)s1 , TGI = 6.33 µM
